target: hOGA (Homo sapiens, UniProt O60502); construct: endogenous in cells; host or cells: HEK293 cells inducible for P301L mutant human Tau (isoform 2N4R); test: OGA cellular assay (ICC detection of O-GlcNAcylated proteins in HEK293 cells inducible for P301L mutant human Tau); type: cell-based; set-up: dose or concentration left out as unconfirmed; settings: HEK293, read-out: Cellular Emax (%)
Sequence (O60502 whole entry, canonical isoform): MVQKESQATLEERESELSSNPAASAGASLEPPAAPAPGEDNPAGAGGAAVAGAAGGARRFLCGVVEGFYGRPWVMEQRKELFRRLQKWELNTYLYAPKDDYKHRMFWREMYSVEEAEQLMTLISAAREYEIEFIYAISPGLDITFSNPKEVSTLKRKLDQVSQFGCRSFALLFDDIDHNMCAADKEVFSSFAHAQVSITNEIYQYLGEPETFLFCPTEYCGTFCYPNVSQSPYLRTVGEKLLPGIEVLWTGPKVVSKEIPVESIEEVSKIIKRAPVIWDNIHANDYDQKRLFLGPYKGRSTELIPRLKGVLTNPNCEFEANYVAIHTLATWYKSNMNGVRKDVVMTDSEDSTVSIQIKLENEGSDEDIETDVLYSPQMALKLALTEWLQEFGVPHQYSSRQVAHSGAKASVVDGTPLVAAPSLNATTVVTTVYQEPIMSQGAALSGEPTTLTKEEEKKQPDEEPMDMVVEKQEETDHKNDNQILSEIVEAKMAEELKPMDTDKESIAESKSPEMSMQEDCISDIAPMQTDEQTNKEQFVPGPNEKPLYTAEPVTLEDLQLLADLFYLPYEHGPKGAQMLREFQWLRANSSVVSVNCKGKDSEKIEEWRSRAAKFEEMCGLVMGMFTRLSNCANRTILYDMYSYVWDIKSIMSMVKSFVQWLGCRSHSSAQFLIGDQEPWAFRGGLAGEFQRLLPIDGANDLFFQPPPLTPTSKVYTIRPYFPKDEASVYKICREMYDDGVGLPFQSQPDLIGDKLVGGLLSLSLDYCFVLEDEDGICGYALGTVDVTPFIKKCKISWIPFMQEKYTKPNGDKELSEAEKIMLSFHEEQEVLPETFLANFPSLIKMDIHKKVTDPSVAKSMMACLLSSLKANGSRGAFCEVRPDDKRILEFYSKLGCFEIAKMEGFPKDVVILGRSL
This listing pairs compounds with measured Emax.
Report the figure in % without appending any unit label.

Below, 5 compounds whose answers are already recorded.
compound: COc1cc(C)c(Nc2nccc3c2ncn3CC(=O)N(C)C)c(C)c1
Emax (%): 98
--
compound: CC(=O)n1nc(C)c(Nc2nccc3c2ncn3CC(=O)N(C)C)c1C
Emax (%): 8
--
compound: Cc1cc(C(F)(F)F)cc(C)c1Nc1ncc(F)c2c1ncn2CC(=O)N(C)C
Emax (%): 25
--
compound: Cc1c(-c2cccc(F)c2)nn(C)c1Nc1nccc2c1ncn2CC(=O)N(C)C
Emax (%): 27
--
compound: Cc1cc(C(F)(F)F)cc(C)c1Nc1nccc2c1ncn2Cc1ccon1
Emax (%): 72

Incoming: Checklist item: Emax tested on hOGA (Homo sapiens, UniProt O60502), entry "Cc1cc(OC(F)(F)F)cc(C)c1Nc1nccc2c1ncn2CC(=O)N(C)C" , value?
Outgoing: 82

Incoming: Do the same for "Cc1cc(C(F)(F)F)cc(C)c1Nc1nccc2c1ncn2CC(=O)N1CCCC1" please
Outgoing: 57

Incoming: Now try "Cc1ccnc(C(C)C)c1Nc1nccc2c1cnn2CC(=O)N(C)C" .
Outgoing: 24

Incoming: How about "Cc1cc(F)cc(F)c1Nc1nccc2c1ncn2CC(=O)N(C)C" ?
Outgoing: 8

Incoming: What would you report for "Cc1ccnc(C(C)C)c1Nc1nccc2c1ncn2CC(=O)N(C)C" ?
Outgoing: 75

Incoming: Now the same for "CCCCn1cnc2c(Nc3c(C)cc(F)cc3C)nccc21"
Outgoing: 62

Incoming: Now the same for "Cc1cc(Cl)cc(C)c1Nc1nccc2c1ncn2CC(=O)N(C)C"
Outgoing: 62

Incoming: Request: "Cc1cc(C(F)(F)F)cc(C)c1Nc1nccc2c1ncn2CC(=O)N(C)C"
Outgoing: 87

---

biological target: recombinant human Meningioma Expressed Antigen 5 (MGEA5), also referred to as O-GlcNAcase (OGA) (Homo sapiens, UniProt O60502); construct: Full length OGA enzyme was purchased at OriGene (cat #TP322411); purchased OriGene TP322411; assay: OGA biochemical assay (inhibition of FM-GlcNAc hydrolysis, fluorescence); conditions: read-out: Enzymatic Emax (%)
Sequence (O60502 whole entry): as the sequence (O60502 whole entry, canonical isoform) above
measure.name: Emax (%)
# unit: % | format: bare number

compound: CCCCn1ncc2c(Nc3c(Cl)cccc3Cl)nccc21
quantitative.readout: 104
--
compound: Cc1nn(-c2cccc(F)c2)c(C)c1Nc1nccc2c1ncn2CC(=O)N(C)C
quantitative.readout: 99

Incoming: For the compound "Cc1ccc(-n2nc(C)c(Nc3nccc4c3ncn4CC(=O)N(C)C)c2C)cc1C" , what Emax is on record?
Outgoing: 93

Incoming: Request: "Cc1cc(C(F)(F)F)cc(C)c1Nc1nccc2c1ncn2-c1ncc(F)cn1"
Outgoing: 80

Incoming: What about "Cc1cc2c(ncn2CC(=O)N(C)C)c(Nc2c(C)cc(C(F)(F)F)cc2C)n1" ?
Outgoing: 55

Incoming: Now consider "Cc1cc(C(F)(F)F)nc(C)c1Nc1nccc2c1ncn2CC(=O)N1CCC1" .
Outgoing: 82

Incoming: And what about the compound "CC(C)c1cc(F)cc(Cl)c1Nc1nccc2c1ncn2CC(=O)N(C)C" ?
Outgoing: 97

meta.source: patent US20230099293A1
